biological target: human CB1 H270A mutant receptor (Homo sapiens, UniProt P21554, H270A); test: biochemical
Sequence (P21554 whole entry H270A): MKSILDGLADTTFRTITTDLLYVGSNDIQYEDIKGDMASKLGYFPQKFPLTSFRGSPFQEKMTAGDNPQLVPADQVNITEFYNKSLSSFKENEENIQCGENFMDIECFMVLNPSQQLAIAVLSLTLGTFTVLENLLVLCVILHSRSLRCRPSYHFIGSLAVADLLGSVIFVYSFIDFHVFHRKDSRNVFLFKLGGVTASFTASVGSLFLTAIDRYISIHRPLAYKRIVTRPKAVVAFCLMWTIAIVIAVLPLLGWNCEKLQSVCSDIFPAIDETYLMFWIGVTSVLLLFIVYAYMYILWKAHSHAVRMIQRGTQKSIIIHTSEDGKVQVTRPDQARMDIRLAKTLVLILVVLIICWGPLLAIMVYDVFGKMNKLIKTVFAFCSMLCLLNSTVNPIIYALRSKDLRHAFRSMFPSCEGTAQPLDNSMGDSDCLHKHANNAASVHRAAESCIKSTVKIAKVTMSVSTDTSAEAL
Consider the reported Ki of an entry and match it to a band in lower bin (below 6 nM), middle bin (6 nM to below 90 nM), upper bin (90 nM or more)

Category of CS(=O)(=O)N(c1cc(F)cc(F)c1)C1CN(C(c2ccc(Cl)cc2)c2ccc(Cl)cc2)C1 [AVE1625] , please.
lower bin

Could you tell me which band CC1=CC[C@@H]2[C@@H](C1)c1ccc(CC#CCCCNS(C)(=O)=O)cc1OC2(C)C [O-2050] belongs to?
middle bin

Categorize the following entry: CCCCCCC(C)(C)c1cc(O)c2c(c1)OC(C)(C)[C@@H]1CC=C(CO)C[C@@H]21 [HU-210]
middle bin

Record N#Cc1c(Oc2cccc(OS(=O)(=O)CCCC(F)(F)F)c2)cccc1C(F)(F)F [BAY593074] — which class?
upper bin

Note: place this molecule into its band. Item: CCCCC(C)c1ccc(-c2c(-c3ccc(Cl)cc3Cl)nn(N3CCCCC3)c2C)cc1 (stereo not shown) [O-1690]
lower bin

Kindly state the category for this molecule: CCCCCc1ccc(-n2nc(C(=O)NN3CCCCC3)c(C)c2-c2ccc(Cl)cc2)cc1 [O-1255]
upper bin

Dear colleague, I would appreciate it if you could identify the bin for CCCCC(C)(C)c1cc(O)c2c(c1)OC(C)(C)C1CC=C(C)CC21 (stereo not shown) [JWH061] and reply at your convenience.
upper bin

Input CCCCCc1ccc(-c2c(C)c(C(=O)NN3CCCCC3)nn2-c2ccc(Cl)cc2Cl)cc1 [O-1302] ; output its category
lower bin

---

molecular target: human CB1 I271A mutant receptor (Homo sapiens, UniProt P21554, I271A); test: biochemical; assay type: binding
Sequence (P21554 whole entry I271A): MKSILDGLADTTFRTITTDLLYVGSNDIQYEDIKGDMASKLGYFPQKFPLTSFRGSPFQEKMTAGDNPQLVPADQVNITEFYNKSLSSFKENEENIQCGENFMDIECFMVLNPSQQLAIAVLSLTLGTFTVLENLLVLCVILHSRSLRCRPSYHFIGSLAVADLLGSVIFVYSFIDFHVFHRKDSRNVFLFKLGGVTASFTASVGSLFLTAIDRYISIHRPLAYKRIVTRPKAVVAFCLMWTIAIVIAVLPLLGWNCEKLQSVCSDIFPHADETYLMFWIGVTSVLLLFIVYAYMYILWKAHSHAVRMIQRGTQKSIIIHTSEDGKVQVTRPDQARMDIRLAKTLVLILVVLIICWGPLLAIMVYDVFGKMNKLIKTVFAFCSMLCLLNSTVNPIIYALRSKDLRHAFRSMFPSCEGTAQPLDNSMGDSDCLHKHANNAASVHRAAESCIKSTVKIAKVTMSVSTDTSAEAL
readout: Ki

Consider the compound CCCCCc1ccc(-c2c(C)c(C(=O)NN3CCCCC3)nn2-c2ccc(Cl)cc2Cl)cc1 [O-1302] . State its measured Ki.
38.4 nM

Provide measured Ki value, entry: CC1=CCC2C(C1)c1c(O)cc(C(C)(C)C)cc1OC2(C)C (centres unmarked) [JWH179]
194 nM

Read off the recorded Ki for O=C(NN1CCCCC1)c1nn(-c2ccc(Cl)cc2Cl)c2c1CCCc1cc(Cl)ccc1-2 [NESS0327]
11.2 nM

For the compound CCCCC(C)c1ccc(-c2c(-c3ccc(Cl)cc3Cl)nn(N3CCCCC3)c2C)cc1 (centres unmarked) [O-1690] , give its reported Ki.
77.3 nM

Look up and report measured Ki for this entry: CC1=CC[C@@H]2[C@@H](C1)c1ccc(CC#CCCCNS(C)(=O)=O)cc1OC2(C)C [O-2050]
166 nM

---

target: human CB1 F268W mutant receptor (Homo sapiens, UniProt P21554, F268W); assay: biochemical; format: binding
Sequence (P21554 whole entry F268W): as the sequence (P21554 whole entry H270A) above, with F268W, A270H counted along it
readout: pKi
Give only the number. pKi is defined as minus log10 of concentration in molar units.

Using known records, supply pKi for N#Cc1c(Oc2cccc(OS(=O)(=O)CCCC(F)(F)F)c2)cccc1C(F)(F)F [BAY593074]
5.73

Consider the compound CC1=CC[C@@H]2[C@@H](C1)c1ccc(CC#CCCCNS(C)(=O)=O)cc1OC2(C)C [O-2050] and give its recorded pKi.
6.83

Note pKi for the compound shown: CCCCCc1ccc(-n2nc(C(=O)NN3CCCCC3)c(C)c2-c2ccc(Cl)cc2)cc1 [O-1255]
6.51

In one line, give reported pKi of the entry CC1=CCC2C(C1)c1c(O)cc(C(C)(C)C)cc1OC2(C)C (stereo not drawn) [JWH179] .
5.95

Name the recorded pKi of the item CCCCCc1ccc(-c2c(C)c(C(=O)NN3CCCCC3)nn2-c2ccc(Cl)cc2Cl)cc1 [O-1302] in your answer.
7.58

Look up and report measured pKi for this entry: CS(=O)(=O)N(c1cc(F)cc(F)c1)C1CN(C(c2ccc(Cl)cc2)c2ccc(Cl)cc2)C1 [AVE1625]
8.66

For CCCCC(C)(C)c1cc(O)c2c(c1)OC(C)(C)C1CC=C(C)CC21 (stereo not drawn) [JWH061] , write its pKi.
5.46

Assign pKi to the following record: CCCCC(C)c1ccc(-c2c(-c3ccc(Cl)cc3Cl)nn(N3CCCCC3)c2C)cc1 (stereo not drawn) [O-1690]
7.63

Give the measured pKi for O=C(NN1CCCCC1)c1nn(-c2ccc(Cl)cc2Cl)c2c1CCCc1cc(Cl)ccc1-2 [NESS0327]
7.68
